For each record, write down the corresponding growth.
Tested on: HOP-92 NSCLC
Assay: NCI-60 one-dose screen, 48 h (100 = growth as untreated, 0 = no growth, -100 = all killed)
Settings: 10 µM unless noted
Protocol: Growth inhibition of the HOP-92 human Non-Small Cell Lung tumor cell line is measured as a screen for anti-cancer activity. Cells are grown in 96 well plates and exposed to the test compound for 48 hours. Compounds are tested at a single concentration, which is 10^-5 M for most compounds. The reported endpoint is percent growth (GI% or GIPRCNT), where numbers from 0 - 100% represent growth inhibition, and numbers from -100% - 0 represent cell death. […]
Compounds without any hit were thinned out: in the full panel of roughly 83,000, 20% have a hit. Calls of active or inactive are those of the source. The calls were made as follows: active = growth percent below 10; inactive = the rest.

# input Give recorded growth with HOP-92 NSCLC for the following compound: COc1ccc(Cc2cnc(NC(=O)c3ccc4c(c3)OCCO4)s2)cc1
# output 57.8% (inactive)

# input One more compound: COc1ccc(/C=C/c2nc(Nc3ccc(S(=O)(=O)Nc4nc(C)cc(C)n4)cc3)c3ccccc3n2)cc1
# output 66.4% (inactive)

# input Could you do the same for CCN(CC)c1ccc(/C=N/NC(=O)CSc2nc3ccccc3c(=O)n2Cc2ccc(S(N)(=O)=O)cc2)c(O)c1 , please?
# output 58.4% (inactive)

# input Then what about the compound COc1ccccc1/C(C)=N/NC(=O)CSc1nc2ccccc2c(=O)n1Cc1ccc(S(N)(=O)=O)cc1 ?
# output 105% (inactive)

# input Thanks! And O=C(c1ccccc1)N1N=C(c2ccc(-n3ccc(C(F)(F)F)n3)c(F)c2)CC1c1ccc[nH]1 (centres undefined) ?
# output 141% (inactive)

# input Try this compound too: COc1ccc(-c2[nH][nH]c(=O)c2-c2nc3ccccc3s2)cc1
# output 108% (inactive)

# input Record: Cn1ccc2c1CC1CN(Cc3ccco3)C(=O)C1C2C(=O)O (centres undefined)
# output 99.4% (inactive)

# input Follow-up entry: Cc1cc(C)c(S(=O)(=O)Oc2ccccc2[N+](=O)[O-])c(C)c1
# output 38.1% (inactive)

# input Same thing, different compound: C=CCN1C(=O)/C(=C/C(=O)OC)S/C1=N\NC(=O)c1cc2ccc1/C=C\c1ccc(cc1)/C=C\2
# output 81.4% (inactive)
